Test details: Nuclear factor erythroid 2-related factor 2/antioxidant responsive element (Nrf2/ARE) small molecule agonists: qHTS cell viability counter screen in human keratinocytes (AID 1919968); also: nearly all actives have a fitted effect of over 55% in size
Experimental setup: KeratinoSens HaCaT ARE cells viability, CellTiter-Fluor, 24 h; series mostly up to 92.4 µM
Records with an inconclusive call do not appear. The source made the active and inactive calls. Calls follow the shape of the dose curve; as a rule, active = well fitted cell-killing curve with a large enough effect in the repeat runs; inconclusive = weak or mixed curves, or effect the other way; inactive = flat fitted curve, though single readings scatter.
Write down one outcome, taken from 1.0 for active, 0.0 for inactive

Solved entries:
>>> assigned_label("FC(F)(F)C(F)(F)C(F)(F)C(F)(F)C(F)(F)C(F)(F)C(F)(F)C(F)(F)Br")
0.0
>>> assigned_label("C[N+]1(C)[C@@H]2CC(OC(=O)[C@H](CO)c3ccccc3)C[C@H]1[C@@H]1O[C@@H]12 (some centres undefined)")
0.0
>>> assigned_label("O=C(O)C1CCC1")
0.0
>>> assigned_label("CC(C)=CCC/C(C)=C\\C#N")
0.0
>>> assigned_label("Cc1ccc(S)cc1")
0.0

In this assay, the call recorded for O=P(O)(O)C(O)(Cc1cccnc1)P(=O)(O)O was what? 0.0

Would you mind telling me which call this test gave O=C1c2ccccc2C(=O)C1c1ccccc1 ? 0.0

Test call, this compound: CCCc1ncc(C(=O)O)s1 0.0

Hi team, can someone confirm the assay call for CCN1CC(CCN2CCOCC2)C(c2ccccc2)(c2ccccc2)C1=O (centres undefined) ? 0.0

Assay outcome for C/C=C\C/C=C/CCCCCCCCOC(C)=O : what was it? 0.0

---

Experimental system: Gonadotropin-releasing hormone receptor (Homo sapiens) (UniProt P30968)
Sequence (P30968 whole entry, looked up): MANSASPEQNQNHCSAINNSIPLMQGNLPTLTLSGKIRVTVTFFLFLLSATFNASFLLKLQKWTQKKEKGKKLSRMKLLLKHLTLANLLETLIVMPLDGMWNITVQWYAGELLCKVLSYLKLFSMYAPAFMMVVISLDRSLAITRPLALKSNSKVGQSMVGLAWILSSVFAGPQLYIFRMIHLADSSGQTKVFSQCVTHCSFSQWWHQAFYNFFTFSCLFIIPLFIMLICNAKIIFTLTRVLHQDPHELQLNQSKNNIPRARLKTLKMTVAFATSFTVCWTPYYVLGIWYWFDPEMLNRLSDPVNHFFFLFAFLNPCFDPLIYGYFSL
Test details: Human gonadotropin-releasing hormone receptor (GnRHR) small molecule agonists, calcium flux assay in GnRHR-HEK293 cells (AID 1920063); also: % is scaled to controls: 0 for no effect and ±100 for the full control effect; nearly all actives have a fitted effect of over 35% in size
Experimental setup: calcium flux fluorescence, agonist mode; series mostly up to 57.6 µM
The source made the active and inactive calls. Calls come from the whole dose curve.
Measured metric: activity change

>>> result("CN1C(=O)CC(c2ccccc2)C1=O (stereo not drawn)")
"inactive"
>>> result("C[C@]12C=CC(=O)C=C1[C@@H](F)C[C@@H]1[C@@H]2[C@@H](O)C[C@@]2(C)[C@H]1CC[C@]2(O)C(=O)CO")
"inactive"
>>> result("CC[C@@]1(O)C(=O)OCc2c1cc1n(c2=O)Cc2c-1nc1ccccc1c2/C=N/OC(C)(C)C")
"inactive"

---

Would you kindly list Potency for each of these compounds?
Experimental system: 5-hydroxytryptamine receptor 2A (Homo sapiens) (UniProt P28223)
Sequence (P28223 whole entry, looked up): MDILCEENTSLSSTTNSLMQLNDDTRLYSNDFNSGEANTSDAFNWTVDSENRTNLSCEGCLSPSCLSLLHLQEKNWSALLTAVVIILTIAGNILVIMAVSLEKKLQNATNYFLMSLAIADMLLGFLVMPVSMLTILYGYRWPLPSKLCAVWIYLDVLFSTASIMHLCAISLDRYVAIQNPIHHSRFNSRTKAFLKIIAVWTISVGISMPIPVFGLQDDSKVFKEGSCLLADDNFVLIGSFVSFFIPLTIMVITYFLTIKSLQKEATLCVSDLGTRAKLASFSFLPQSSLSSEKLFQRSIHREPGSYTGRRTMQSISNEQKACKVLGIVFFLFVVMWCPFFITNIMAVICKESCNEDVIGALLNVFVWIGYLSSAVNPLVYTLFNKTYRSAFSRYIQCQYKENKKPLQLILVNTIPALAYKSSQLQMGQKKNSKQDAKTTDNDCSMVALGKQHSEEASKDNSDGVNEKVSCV
Test details: 5-hydroxytryptamine receptor 2A (HTR2A) small molecule agonists, cell-based qHTS assay (AID 1963587); also: potency is read from the fitted curve at half-maximal effect; nearly all actives have a fitted effect of over 30% in size
Experimental setup: HTR2A-CHO cells, calcium flux fluorescence, agonist mode; series mostly up to 76.8 µM
Inconclusive results are not listed. Calls of active or inactive are those of the source. Calls come from the whole dose curve.

>>> result("COC(=O)c1cccc(Cl)c1")
"21.6 µM (active)"
>>> result("CCCCCCCC/C=C\\CCCCCCCCN")
"21.3 µM (active)"

Each compound below has a reported value. Please supply its Potency.
1. CC(C)(C)C1=CC(=O)C(C(C)(C)C)=CC1=O
2. CN(C)CCc1c[nH]c2ccc(C[C@H]3COC(=O)N3)cc12

3.79 µM (active)
8.49 µM (active)

---

Test details: Nuclear factor erythroid 2-related factor 2/antioxidant responsive element (Nrf2/ARE) small molecule agonists: qHTS cell viability counter screen in human keratinocytes (AID 1919968); also: nearly all actives have a fitted effect of over 55% in size
Experimental setup: KeratinoSens HaCaT ARE cells viability, CellTiter-Fluor, 24 h; series mostly up to 92.4 µM
Inconclusive results are not listed. Calls of active or inactive are those of the source. The call rests on the fitted dose curve; in most records, active means well fitted cell-killing curve with a large enough effect in the repeat runs; inconclusive means weak or mixed curves, or effect the other way; inactive means flat fitted curve, though single readings scatter.
Please reply with one of these outcomes: 1 (yes) for active, 0 (no) for inactive

>>> assigned_label("O=C(O)CCC(=O)OC[C@@H](NC(=O)C(Cl)Cl)[C@H](O)c1ccc([N+](=O)[O-])cc1")
"0 (no)"
>>> assigned_label("Nc1cc([N+](=O)[O-])cc(Cl)c1O")
"0 (no)"
>>> assigned_label("Oc1c(Br)cc(Br)c2cccnc12")
"1 (yes)"
>>> assigned_label("CC(C)(C(=O)c1cccnc1)c1cccnc1")
"0 (no)"

Could you kindly confirm the outcome this assay logged for O=C(O)c1cccc(Oc2ccccc2)c1 ? 0 (no)

---

Record form. Attribute: activity change, negative = cytotoxicity. Fill in for each entry.
Test details: Nuclear factor erythroid 2-related factor 2/antioxidant responsive element (Nrf2/ARE) small molecule agonists: qHTS cell viability counter screen in human keratinocytes (AID 1919968); also: nearly all actives have a fitted effect of over 55% in size; as to activity change, negative = cytotoxicity: % is scaled to controls: 0 for no effect and ±100 for the full control effect
Experimental setup: KeratinoSens HaCaT ARE cells viability, CellTiter-Fluor, 24 h; series mostly up to 92.4 µM
Results filed as inconclusive are left out. Active and inactive are the calls of the source. Calls come from the whole dose curve; as a rule, active = well fitted cell-killing curve with a large enough effect in the repeat runs; inconclusive = weak or mixed curves, or effect the other way; inactive = flat fitted curve, though single readings scatter.

>>> result("NC[C@H]1O[C@H](O[C@H]2[C@H](O[C@@H]3O[C@H](CO)[C@@H](O)[C@H]3O)C(O)[C@H](N)C[C@@H]2N)[C@H](N)[C@@H](O)[C@@H]1O (stereo partly drawn)")
"-6.49% [at 8.39 µM] (inactive)"

For each of the items listed, what is its activity change, negative = cytotoxicity?
1. C/C=C/C(=O)CC
2. CCc1nccnc1CC
3. CC(C)C[C@@H](N)C(=O)O
4. CCCCCCCCCCCCCCCCCO
5. O=C(O)CNCC(=O)O
6. CN1C[C@@H]2C[C@H]1CN2c1cc2c(cc1F)c(=O)c(C(=O)O)cn2C1CC1
7. C[C@@H](O)[C@H](N)C(=O)O

1. -0.853% [at 19 µM] (inactive)
2. 5.52% [at 19 µM] (inactive)
3. 2.62% [at 19 µM] (inactive)
4. 0.787% [at 19 µM] (inactive)
5. 0.812% [at 8.39 µM] (inactive)
6. -0.599% [at 19 µM] (inactive)
7. 1.84% [at 19 µM] (inactive)

---

Test details: Nuclear factor erythroid 2-related factor 2/antioxidant responsive element (Nrf2/ARE) small molecule agonists: luciferase reporter gene qHTS assay in human keratinocytes (AID 1919969); also: % is scaled to controls: 0 for no effect and ±100 for the full control effect; nearly all actives have a fitted effect of over 35% in size
Experimental setup: KeratinoSens HaCaT ARE-luciferase, luminescence, 24 h; series mostly up to 92.4 µM
Inconclusive results are not listed. Activity calls are given as the source filed them. Calls follow the shape of the full dose curve.
Measured metric: outcome

>>> result("CC(C)NCC(O)c1ccc(NS(C)(=O)=O)cc1 (stereo not drawn)")
"inactive"
>>> result("CC(CNC1CCCCC1)OC(=O)c1ccccc1 (stereo not drawn)")
"inactive"
>>> result("CC1CCCO1 (stereo not drawn)")
"inactive"

---

Experimental system: Beta-2 adrenergic receptor (Homo sapiens)
Test details: Adrenergic beta2 receptor (ADRB2) small molecule agonists, cell-based qHTS assay (AID 1963593);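 also: CHO cells stably overexpressing human ADRB2; % is scaled to controls: 0 for no effect and ±100 for the full control effect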
Experimental setup: CHO-ADRB2 cells, cAMP HTRF, 30 min; series mostly up to 42.5 µM
Inconclusive results are not listed. Calls of active or inactive are those of the source. Calls follow the shape of the full dose curve.
Hello, when you answer, please use one of the following outcomes: T (active), F (inactive)

Which outcome did this test record for the compound CC(CN1CC(=O)NC(=O)C1)N1CC(=O)NC(=O)C1 (configuration not stated) ? F

---

Experimental system: Muscarinic acetylcholine receptor M1 (Homo sapiens) (UniProt P11229)
Sequence (P11229 whole entry, looked up): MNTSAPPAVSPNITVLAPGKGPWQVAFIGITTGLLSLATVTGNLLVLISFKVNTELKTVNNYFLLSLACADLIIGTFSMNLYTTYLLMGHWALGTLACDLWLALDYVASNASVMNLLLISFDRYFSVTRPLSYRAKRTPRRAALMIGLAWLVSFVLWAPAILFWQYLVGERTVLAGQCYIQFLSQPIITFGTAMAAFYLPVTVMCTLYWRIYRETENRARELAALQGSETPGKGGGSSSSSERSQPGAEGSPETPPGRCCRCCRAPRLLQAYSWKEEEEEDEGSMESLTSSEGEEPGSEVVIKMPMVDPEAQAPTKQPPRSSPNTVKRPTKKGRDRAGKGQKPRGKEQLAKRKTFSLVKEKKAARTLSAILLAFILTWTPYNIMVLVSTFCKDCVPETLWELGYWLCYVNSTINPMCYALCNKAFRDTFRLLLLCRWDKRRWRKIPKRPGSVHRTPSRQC
Test details: Cholinergic receptor muscarinic 1 (CHRM1) small molecule antagonists, cell-based qHTS assay (AID 1963588); also: % is scaled to controls: 0 for no effect and ±100 for the full control effect; nearly all actives have a fitted effect of over 40% in size
Experimental setup: CHRM1-CHO antagonist mode, calcium flux fluorescence; series mostly up to 61.5 µM
Records with an inconclusive call do not appear. Active and inactive are the calls of the source. Calls come from the whole dose curve.
Reply using exactly one outcome from 1 (active), -1 (inactive)

>>> assigned_label("C=CCCCCCCCCC=O")
-1
>>> assigned_label("CCCCCCC(O)CO (stereo not given)")
-1
>>> assigned_label("Cc1ccccc1C(=O)O")
-1
>>> assigned_label("CC1=NC(C)OC1C (stereo not given)")
-1
>>> assigned_label("NS(=O)(=O)c1cc(C(=O)O)cc(N2CCCC2)c1Oc1ccccc1")
-1

Recorded test call requested for COC(=O)c1cccc(Cl)c1 -1

Short answer needed: outcome of this test for Cc1ccc2ccccc2n1 ? -1

---

Test details: Nuclear factor erythroid 2-related factor 2/antioxidant responsive element (Nrf2/ARE) small molecule agonists: qHTS cell viability counter screen in human keratinocytes (AID 1919968); also: nearly all actives have a fitted effect of over 55% in size
Experimental setup: KeratinoSens HaCaT ARE cells viability, CellTiter-Fluor, 24 h; series mostly up to 92.4 µM
Results filed as inconclusive are left out. Activity calls are given as the source filed them. The call rests on the fitted dose curve; in most records, active means well fitted cell-killing curve with a large enough effect in the repeat runs; inconclusive means weak or mixed curves, or effect the other way; inactive means flat fitted curve, though single readings scatter.
Pick from active, inactive when you respond.

Field: example entries. Status: answers known.
>>> assigned_label("CN1CCN(c2cc3c(cc2F)c(=O)c(C(=O)O)cn3-c2ccc(F)cc2)CC1")
"active"
>>> assigned_label("CCCCCCCCCCCCCCN(CCO)CCO")
"active"
>>> assigned_label("CCCCCCCCCCCCCC(=O)OCC(O)CO (stereo unspecified)")
"inactive"

Record request — test call for O=C1C(CCS(=O)c2ccccc2)C(=O)N(c2ccccc2)N1c1ccccc1 (stereo unspecified) inactive

What classification did CN1CCC(=C2c3ccccc3CCc3sccc32)CC1 end up with in this test? inactive

---

Test details: Nuclear factor erythroid 2-related factor 2/antioxidant responsive element (Nrf2/ARE) small molecule agonists: qHTS cell viability counter screen in human keratinocytes (AID 1919968); also: nearly all actives have a fitted effect of over 55% in size
Experimental setup: KeratinoSens HaCaT ARE cells viability, CellTiter-Fluor, 24 h; series mostly up to 92.4 µM
Inconclusive results are not listed. Active and inactive are the calls of the source. Calls come from the whole dose curve; as a rule, active = well fitted cell-killing curve with a large enough effect in the repeat runs; inconclusive = weak or mixed curves, or effect the other way; inactive = flat fitted curve, though single readings scatter.
Give your call using only these classes: Yes = active, No = inactive

>>> assigned_label("Cc1cc(N)c(S(=O)(=O)O)cc1Cl")
"No"

Hey, what did the test say about CN(C)CCOC1=Cc2ccccc2Sc2ccc(Cl)cc21 ? No

Dear colleague, could you share the recorded outcome for C/C=C/C(=O)OCC(C)C when you have a moment? No

Assay outcome for CN1CCN(CCCN2c3ccccc3Sc3ccc(C(F)(F)F)cc32)CC1 : what was it? Yes

# outcome recorded in this test, key = COc1ccc2c(c1)c(CC(=O)OCC(=O)O)c(C)n2C(=O)c1ccc(Cl)cc1 No

I'd appreciate the recorded outcome for C=Cc1ccccc1 from this test. No

Look up the recorded call for OC[C@@H](O)[C@@H](O)CO in this test. No

Fill in: this test's call for CC1OC(=O)C(C)OC1=O (stereo not drawn) is ___ No

Source of measurements: PubChem BioAssay (Tox21)
